tested on: MS2 coat protein; assay: apparent KD of MS2 coat protein; designed switch direction (-1 OFF switch, 1 ON switch): -1; higher = weaker reporter binding; conditions: input ligand: FMN 200 uM
Classification field: class 1 = apparent KD of MS2 coat protein at or over 0.2 µM; class 0 = apparent KD of MS2 coat protein under 0.2 µM.

- sequenceCode: "GUCGUGCGGCUUUGCUGUGCGAGUACAUGAGGAUCACCCAUGUAGGAUAUGGUACGCUUUGCGUGCCAGAAGGGCGUGCGUUGG [salish99_ExNG3_r04_007] (Eterna round: R96, puzzle: Exclusion NG 3)"
  measuredTarget: "MS2 coat protein"
  classLabel: "class 0"
- sequenceCode: "CAACAACGAGGAUAUACAUGAGGAUCACCCAUGUAAGAAAAGACAUAAACCGCCUGGUGUAGAAGGCGUAAAAC [Xeonesar] (Eterna round: R97, puzzle: Exclusion 3)"
  measuredTarget: "MS2 coat protein"
  classLabel: "class 0"

### Prompt Hello, I need to know if UUCGUGUAAGGAUAUACGACUCAUCCCAAUGGGACGAGCACGUAGAAGGUACAUGAGGAUCACCCAUGUGCUCC [Eddianle] (Eterna round: R96, puzzle: Exclusion 4) has measured apparent KD of MS2 coat protein not below 0.2 µM. Thanks!
### Response class 1

### Prompt Check if apparent KD of MS2 coat protein >= 0.2 µM (inclusive). Item: ACUUUUUGAGGAUAUACAUUGAUUAACAUGAGGAUCACCCAUGUACAAACAUGUAUUUGUGUAGAAGGCAGAAGAA [JR_Ex5_Sub068] (Eterna round: R97, puzzle: Exclusion 5)
### Response class 0

### Prompt // inclusive: apparent KD of MS2 coat protein at least 0.2 µM? input: AGUCGUAGACAGGAUAUGCGGCUAAUAAAUAAAGCAGAAGGGUCUACUUGAGGAUCACCCAAGUGGGCGGUCAA [jl-ex6-4.21 ViennaUCT mod] (Eterna round: R97, puzzle: Exclusion 6)
### Response class 0
